Quick list: protein stability index per entry.
Tested on: Saccharomyces cerevisiae
Test: protein stability index of tFT-peptide fusion in wild type (PSI (0-1 scale)); higher = more stable (slower turnover)
Conditions: genetic background: wild type

| entrySequence | protein stability index |
| --- | --- |
| LSMRWTFRYWVN | 0.0756 |
| KKHKKGQKVKIN | 0.225 |
| LVVYLPCVACIN | 0.119 |
| PSLAASFWRVVGR | 0.692 |

Reported Saccharomyces cerevisiae protein stability index for item VRGAVAGWRLVG was 0.156

Reported Saccharomyces cerevisiae protein stability index for item CLVSLPILLKFR was 0.178

Reported Saccharomyces cerevisiae protein stability index for item IVVYLSCVACIN was 0.0176

Reported Saccharomyces cerevisiae protein stability index for item PDKRNHLIKTLN was 0.164

Reported Saccharomyces cerevisiae protein stability index for item RVTRLQAIYFRI was 0.202

Reported Saccharomyces cerevisiae protein stability index for item CTSCNYKFRTNN was 0.407

Reported Saccharomyces cerevisiae protein stability index for item CTSCGYKFYTNN was 0.374

Reported Saccharomyces cerevisiae protein stability index for item CTSCGYKFRTNNR was 0.707

----------
Tested on: Saccharomyces cerevisiae
Test: protein stability index of tFT-peptide fusion (C-terminal peptide) (PSI (0-1 scale)); higher = more stable (slower turnover)
Conditions: genetic background: wild type; temperature: 30 C
measurementName: protein stability index
I'd appreciate a reply containing only the number, no unit.

Field: example entries. Status: answers known.
| entrySequence | assayResult |
| --- | --- |
| VSKTYEEHIETV [JEN1 C-terminal 12 aa] | 0.692 |
| KYFCDFLLDPEI [ECM14 C-terminal 12 aa] | 0.719 |
| YEGPTLTEFEDA [CYB2 C-terminal 12 aa] | 0.703 |

Shifting focus to the sequence that follows.
Consider LHPFREPAKINI [YDR048C C-terminal 12 aa] . Its measured protein stability index is 0.701

----------
Tested on: Saccharomyces cerevisiae
Assay: protein stability index of tFT-peptide fusion (C-terminal peptide) (PSI (0-1 scale)); higher = more stable (slower turnover)
Details: genetic background: wild type; temperature: 30 C
Short version: protein stability index at least 0.7 is Criterion met, less is Criterion not met.

These recorded examples may help you get a feel for the data.
| entrySequence | discreteLabel |
| --- | --- |
| DNMKLILNGYNL | Criterion not met |
| WGGRNWDGRGCG | Criterion not met |
| GCGHVFEVNYEC | Criterion not met |

[Q] Check this sequence for protein stability index at or above 0.7: QEVKLAPEHRLR
[A] Criterion not met

[Q] Check this sequence for protein stability index at or above 0.7: LLSPSPPLLPPL
[A] Criterion met

[Q] Check this sequence for protein stability index at or above 0.7: SPPPPSCRHSPL
[A] Criterion met

----------
Quick list: protein stability index per entry.
System: Saccharomyces cerevisiae
Experiment: protein stability index of tFT-peptide fusion (C-terminal peptide) (PSI (0-1 scale)); higher = more stable (slower turnover)
Conditions: genetic background: wild type; temperature: 30 C
I'd appreciate a reply containing only the number, no unit.

| entrySequence | targetEntity | protein stability index |
| --- | --- | --- |
| APKVYVAAYTPL | Saccharomyces cerevisiae | 0.676 |
| RLSGDRCSHDAG | Saccharomyces cerevisiae | 0.677 |

Consider GGWGRGERRSRE . Its measured protein stability index is 0.652

Consider PNASPNPHRSNK . Its measured protein stability index is 0.708

Consider ARSVHGSLSLVM . Its measured protein stability index is 0.633

Consider VGACWGCGVCPL . Its measured protein stability index is 0.755

----------
Quick list: protein stability index per entry.
Tested on: Saccharomyces cerevisiae
Test: protein stability index of tFT-peptide fusion (C-terminal peptide) (PSI (0-1 scale)); higher = more stable (slower turnover)
Settings: genetic background: das1 deletion; temperature: 30 C
I'd appreciate a reply containing only the number, no unit.

Field: example entries. Status: answers known.
| entrySequence | measurementName | assayResult |
| --- | --- | --- |
| TKYKTVTVTAKT [YMR244W C-terminal 12 aa] | protein stability index | 0.652 |
| SFTHQEQDTEMN [NAB2 C-terminal 12 aa] | protein stability index | 0.708 |
| IDEIYEDKWLKI [PSK2 C-terminal 12 aa] | protein stability index | 0.727 |
| KKNGKISEKPKK [PDR15 C-terminal 12 aa] | protein stability index | 0.727 |

Shifting focus to the sequence that follows.
Consider HIREDYLRQFGN [KTR5 C-terminal 12 aa] . Its measured protein stability index is 0.691

----------
Quick list: protein stability index per entry.
Test system: Saccharomyces cerevisiae
Assay: protein stability index of tFT-peptide fusion in deletion strain of DOA10 (PSI (0-1 scale)); higher = more stable (slower turnover)
I'd appreciate a reply containing only the number, no unit.

| entrySequence | measurementName | assayResult |
| --- | --- | --- |
| GLYMCSVICWFR | protein stability index | 0.314 |

Reported Saccharomyces cerevisiae protein stability index for item CLVKLPILLFFR was 0.6

Reported Saccharomyces cerevisiae protein stability index for item AITLPYCPLLLR was 0.666

----------
Tested on: Saccharomyces cerevisiae
Test: protein stability index of tFT-peptide fusion (C-terminal peptide) (PSI (0-1 scale)); higher = more stable (slower turnover)
Conditions: genetic background: wild type; temperature: 30 C
measurementName: protein stability index
I'd appreciate a reply containing only the number, no unit.

Field: example entries. Status: answers known.
| entrySequence | protein stability index |
| --- | --- |
| ERTSLLSGETQT [YPQ2 C-terminal 12 aa] | 0.684 |
| DFENKLKKKKRK [TMA64 C-terminal 12 aa] | 0.715 |
| KQREKYAAVASK [SOP4 C-terminal 12 aa] | 0.698 |
| NFWNTGSAIFMQ [YHR069C-A C-terminal 12 aa] | 0.719 |
| SAQRDRRYRKRV [RPS17A C-terminal 12 aa] | 0.69 |
| CPPTIEIGGGGH [MIR1 C-terminal 12 aa] | 0.706 |
| YNSGTEGTRFQI [TAR1 C-terminal 12 aa] | 0.685 |
| EIKPYLRFTKSK [PRX1 C-terminal 12 aa] | 0.718 |
| PSSEEDILHDEL [LHS1 C-terminal 12 aa] | 0.692 |

Shifting focus to the sequence that follows.
Reported Saccharomyces cerevisiae protein stability index for item TKRLRKNKCIIM [RHO4 C-terminal 12 aa] was 0.702

----------
System: Saccharomyces cerevisiae
Assay: protein stability index of tFT-peptide fusion (C-terminal peptide) (PSI (0-1 scale)); higher = more stable (slower turnover)
Conditions: genetic background: das1 deletion; temperature: 37 C
measurementName: protein stability index
I'd appreciate a reply containing only the number, no unit.

Field: example entries. Status: answers known.
| entrySequence | protein stability index |
| --- | --- |
| LLFGCLIRIGCS | 0.403 |
| PFALTPPPSPRS | 0.583 |
| CIVFVYCLFSCP | 0.406 |
| ASHLGLGCLVVC | 0.604 |
| VVCLCEYRLHIF | 0.399 |

Consider NQIIRLIVGLLC . Its measured protein stability index is 0.587

Consider CPPPPPSLLLLC . Its measured protein stability index is 0.666

Consider VTFWISLVYVLV . Its measured protein stability index is 0.35

Consider VVVHFVLVCSTS . Its measured protein stability index is 0.284

Consider FLLEVFVLGRTL . Its measured protein stability index is 0.597

----------
Quick list: protein stability index per entry.
Tested on: Saccharomyces cerevisiae
Test: protein stability index of tFT-peptide fusion (C-terminal peptide) (PSI (0-1 scale)); higher = more stable (slower turnover)
Conditions: genetic background: wild type; temperature: 30 C

| entrySequence | protein stability index |
| --- | --- |
| PICKLLEEEERG [ALG11 C-terminal 12 aa] | 0.699 |
| GYACPTHYLREM [MXR1 C-terminal 12 aa] | 0.717 |
| KNFYNRHTSPQL [YHL008C C-terminal 12 aa] | 0.679 |
| LDLQNQNKKNLW [PIN4 C-terminal 12 aa] | 0.707 |
| AVASFFLRNKRR [FIS1 C-terminal 12 aa] | 0.69 |

Shifting focus to the sequence that follows.
Reported Saccharomyces cerevisiae protein stability index for item SKNDSPKKKGWF [MAS2 C-terminal 12 aa] was 0.702

----------
Test system: Saccharomyces cerevisiae
Assay: protein stability index of tFT-peptide fusion in wild type (PSI (0-1 scale)); higher = more stable (slower turnover)
Details: genetic background: wild type
measurementName: protein stability index
I'd appreciate a reply containing only the number, no unit.

Field: example entries. Status: answers known.
| entrySequence | protein stability index |
| --- | --- |
| CTSCGYKFRGNN | 0.682 |
| FSMRWTFRYYVN | 0.0506 |
| CTSCGYKFRWNN | 0.49 |
| CLVSLPIVLFFR | 0.0839 |
| PSLAASFWRVVW | 0.637 |
| AITLQMCPLLLR | 0.3 |
| CLVSLPIPLFFR | 0.0774 |
| PPKRNHLIKLLN | 0.116 |

Consider PSLAASFWRRVG . Its measured protein stability index is 0.128

Consider DLYMCSVGCWFR . Its measured protein stability index is 0.453

Consider AITLPMCWLLLR . Its measured protein stability index is 0.0817

Consider PSLAASTWRVVG . Its measured protein stability index is 0.132

Consider PDKRNHLIGLLN . Its measured protein stability index is 0.612

Consider PSLAASFWRVDG . Its measured protein stability index is 0.68

Each recorded value in this set is attributed to the supplement of paper PMC10724198.
